Attribution: patent US20200317776A1

# Soluble luciferase activation at 10 µg/ml Fold over control per entry
target: human TREM2/DAP12 fusion protein (human, UniProt O43914 41-113, limits assumed); test: cell-based or functional assay
Sequence (O43914 other isoform, or with tags, fused parts or gaps limits assumed): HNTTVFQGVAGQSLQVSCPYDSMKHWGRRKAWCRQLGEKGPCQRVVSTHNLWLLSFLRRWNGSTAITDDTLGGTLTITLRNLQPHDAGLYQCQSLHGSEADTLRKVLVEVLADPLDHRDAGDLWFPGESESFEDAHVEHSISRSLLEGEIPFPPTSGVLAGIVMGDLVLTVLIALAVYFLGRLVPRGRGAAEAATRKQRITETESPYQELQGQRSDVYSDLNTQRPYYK
property measured: Soluble luciferase activation at 10 µg/ml Fold over control (fold over control)

| binder | value |
| --- | --- |
| AL2p-h47 (antibody, human IgG1, V domains shown, humanized, human IgG1; Fab and IgG formats under one id) VH: QVQLVQSGAEVKKPGASVKVSCKASGYAFSSSWMNWVRQAPGQGLEWMGRIYPGDGDTNYNGEFRVRVTMTRDTSTSTVYMELSSLRSEDTAVYYCARLLRNQPGESYAMDYWGQGTLVTVSS VL: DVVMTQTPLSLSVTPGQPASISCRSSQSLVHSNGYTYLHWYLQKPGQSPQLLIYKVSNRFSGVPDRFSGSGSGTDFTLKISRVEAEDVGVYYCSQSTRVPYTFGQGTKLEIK | 9.28 |
| AL2p-h27 (antibody, human IgG1, V domains shown, humanized, human IgG1; Fab and IgG formats under one id) VH: QVQLVQSGAEVKKPGASVKVSCKASGYAFSSSWMNWVRQAPGQGLEWIGRIYPGDGDTNYNGEFRVRATLTADTSTSTAYMELSSLRSEDTAVYFCARLLRNQPGESYAMDYWGQGTLVTVSS VL: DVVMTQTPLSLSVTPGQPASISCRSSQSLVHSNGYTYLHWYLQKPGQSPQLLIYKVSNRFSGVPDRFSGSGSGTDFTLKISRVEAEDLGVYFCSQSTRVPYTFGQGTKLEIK | 7.23 |
| AL2p-h35 (antibody, human IgG1, V domains shown, humanized, human IgG1; Fab and IgG formats under one id) VH: QVQLVQSGAEVKKPGSSVKVSCKASGYAFSSSWMNWVRQAPGQGLEWMGRIYPGDGDTNYAQKFQGRATITADTSTSTAYMELSSLRSEDTAVYYCARLLRNQPGESYAMDYWGQGTLVTVSS VL: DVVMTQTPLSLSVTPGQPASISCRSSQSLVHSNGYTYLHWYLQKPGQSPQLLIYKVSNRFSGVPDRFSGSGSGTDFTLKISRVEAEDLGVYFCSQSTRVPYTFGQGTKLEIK | 6.81 |
| AL2p-h28 (antibody, human IgG1, V domains shown) VH: QVQLVQSGAEVKKPGASVKVSCKASGYAFSSSWMNWVRQAPGQGLEWIGRIYPGDGDTNYAQKFQGRATLTADTSTSTAYMELSSLRSEDTAVYFCARLLRNQPGESYAMDYWGQGTLVTVSS VL: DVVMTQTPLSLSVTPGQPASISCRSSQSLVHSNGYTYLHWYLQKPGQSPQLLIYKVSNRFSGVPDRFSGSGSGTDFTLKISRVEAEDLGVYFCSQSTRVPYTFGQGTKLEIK | 5.59 |
| AL2p-h36 (antibody, human IgG1, V domains shown) VH: EVQLLESGGGLVQPGGSLRLSCAASGYAFSSSWMNWVRQAPGKGLEWIGRIYPGDGDTNYAQKFQGRATISADTSKNTAYLQMNSLRAEDTAVYYCARLLRNQPGESYAMDYWGQGTLVTVSS VL: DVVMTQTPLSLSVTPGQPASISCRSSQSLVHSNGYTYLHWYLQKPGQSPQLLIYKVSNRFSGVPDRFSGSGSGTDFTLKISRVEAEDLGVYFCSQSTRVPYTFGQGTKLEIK | 4.13 |
